# Tested on: SNB-19
# Test summary: NCI tumour cell line growth inhibition, 48 h
Calls of active or inactive are those of the source. Rule as the data show it: active = GI50 up to about 1.1 µM and inactive = higher.
GI50 values, listed per item

Some compounds with known GI50 results, for comparison:
Field request: GI50 | item: Cc1c2c(Cl)c3c(c(Cl)c2c(C)c2c(Cl)c4c(c(Cl)c12)C(c1ccccc1)(c1ccccc1)C4(c1ccccc1)c1ccccc1)C(c1ccccc1)(c1ccccc1)C3(c1ccccc1)c1ccccc1
> 100 µM (inactive)

Field request: GI50 | item: O=C1c2cc3c(cc2CC1Cc1ccc2c(c1)CCC2)CCC3 (stereo not given)
34.3 µM (inactive)

Field request: GI50 | item: Oc1nc2ccccc2c2oc3ccccc3c12
> 100 µM (inactive)

Field request: GI50 | item: O=C(O)c1ccc(C(=O)c2ccccc2C(=O)O)cc1C(=O)O
> 100 µM (inactive)

Field request: GI50 | item: CC(=O)c1c2c(cc3c1CC1(C3)Cc3ccc4c(c3C1=O)CCC4)CCC2 (stereo not given)
> 100 µM (inactive)

---
Field request: GI50 | item: O=C(NCCO)c1c(O)c2ccccc2[nH]c1=O
> 100 µM (inactive)

Field request: GI50 | item: Clc1nc(Nc2nc3ccccc3[nH]2)nc(Cl)c1-c1ccccc1
36.1 µM (inactive)

Field request: GI50 | item: C=C(C)C1CC[C@@](C)(O)[C@H](C#N)C1 (stereo not given in full)
> 100 µM (inactive)

Field request: GI50 | item: COCOC1CCCC[C@@]1(OCCOCCO[C@@]1(c2ccccc2)CCCC[C@H]1OCOC)c1ccccc1 (stereo not given in full)
> 100 µM (inactive)

Field request: GI50 | item: O=c1cc(-c2ccccc2)oc2cc(OCCSCCCCCCCCCCSCCOc3ccc4c(=O)cc(-c5ccccc5)oc4c3)ccc12
51.2 µM (inactive)

Field request: GI50 | item: CC1(C)C[C@H]2[C@H](O)C(CO)=C3C(=O)[C@@H](O)[C@]3(C)[C@H]2C1
> 100 µM (inactive)

Field request: GI50 | item: COc1cc(CCN)c(OC)c(OC)c1
> 100 µM (inactive)

Field request: GI50 | item: CC1CC[C@@]2(OC1)OC1C[C@H]3[C@@H]4CC=C5C[C@@H](OC6OC(CO)C(OC7OC(CO)C(O)C(O)C7O)C(O)C6OC6OC(C)C(O)C(O)C6O)CC[C@]5(C)[C@H]4CC[C@]3(C)C1[C@@H]2C (stereo not given in full)
1.2 µM (inactive)

Field request: GI50 | item: NCCCC1NC(=O)/C(=C(O)/C=C/C2CCC[C@@H]2CC2SCCS2)C1=O (stereo not given in full)
> 100 µM (inactive)

Field request: GI50 | item: COC(=O)CSc1nnc(-c2ccc(O)c([N+](=O)[O-])c2)[nH]1
> 100 µM (inactive)

Field request: GI50 | item: Oc1cccc2c(Br)ccnc12
7.71 µM (inactive)

* * *

# Tested on: SF-539
# Test summary: NCI tumour cell line growth inhibition, 48 h
Activity calls are given as the source filed them. Cut-off read from the data, not from the text of the source: active = GI50 up to about 1.1 µM and inactive = higher.
Write down the outcome that applies. Available outcomes: YES for active, NO for inactive

Some entries whose results are on file:
Name the outcome recorded for COC(=O)C12C3C4C5C3(C#N)C1C5(C(=O)OC)C42C(=O)N(C(C)C)C(C)C (centres undefined) in the assay.
NO

Name the outcome recorded for C#CCN(C(=O)C(F)(F)F)C(/C=C\C(=O)OC)(C(=O)OCC)C(=O)OCC in the assay.
NO

Name the outcome recorded for O=C(O)c1oc2cccc3c2c1CCC3 in the assay.
NO

Name the outcome recorded for Oc1cccc2c(Br)ccnc12 in the assay.
NO

Name the outcome recorded for CCOC(=O)/C=C(/C(=O)OCC)n1cc(C)c(=O)n(/C(=C/C(=O)OCC)C(=O)OCC)c1=O in the assay.
NO

Name the outcome recorded for COc1ccc(NCc2cc(OC)c(OC)c(OC)c2)cc1 in the assay.
YES

---
Name the outcome recorded for O=C1[C@@H]2C(c3ccncc3)=NO[C@@H]2C(=O)N1c1ccc(Cc2ccc(N3C(=O)[C@H]4C(c5ccncc5)=NO[C@H]4C3=O)cc2)cc1 in the assay.
NO

Name the outcome recorded for NC1CCC(c2cc3ccccc3s2)(N2CCCCC2)CC1 (centres undefined) in the assay.
NO

Name the outcome recorded for CC(=O)O[C@H]1[C@H](OC(C)=O)[C@@H](CN=[N+]=[N-])OCO[C@@H]1CN=[N+]=[N-] in the assay.
NO

Name the outcome recorded for COc1cc([N+](=O)[O-])ccc1N1C(=O)C2c3[nH]c4ccccc4c3C3CCC(C(C)(C)C)CC3C2C1=O (centres undefined) in the assay.
NO

Name the outcome recorded for COc1ccc(/N=C2\C(=N/c3ccc(OC)cc3)N(c3ccc(N(C)C)cc3)C(=S)N2c2ccc(OC)cc2)cc1 in the assay.
YES

Name the outcome recorded for CC(C)OP(=S)(NC(=S)c1ccccc1)OC(C)C in the assay.
NO

Name the outcome recorded for CSc1nc(NC2OC(COC(C)=O)C(OC(C)=O)C(OC(C)=O)C2OC(C)=O)c(-c2csc(N)n2)c(=O)n1C (centres undefined) in the assay.
NO

Name the outcome recorded for COC(=O)C(C)NP(=O)(N1CC1)N1CC1 (centres undefined) in the assay.
NO

Name the outcome recorded for O=Nn1c2ccccc2c2cc([N+](=O)[O-])ccc21 in the assay.
NO
